Test system: SK-OV-3 ovarian
Assay: NCI-60 one-dose screen, 48 h (100 = growth as untreated, 0 = no growth, -100 = all killed)
Conditions: 10 µM
Method: Growth inhibition of the SK-OV-3 human tumor cell line is measured as a screen for anti-cancer activity. Cells are grown in 96 well plates and exposed to the test compound for 48 hours. Compounds are tested at a single concentration, which is 10^-5 M for most compounds. The reported endpoint is percent growth (GI% or GIPRCNT), where numbers from 0 - 100% represent growth inhibition, and numbers from -100% - 0 represent cell death. For example, a value of 40 represents 60% growth inhibition. […]
This is part of a sample that, as a whole, favours compounds with a hit. Of some 83,000 tested, about 20% had one in any assay. The source made the active and inactive calls. How the source made its calls: active means growth percent below 10; inactive means the rest.
readout.kind: growth

> print(dat)
                                    compound  system.under.test    value.reported
 1  O=C1/C(=C/c2ccc([N+](=O)[O-])s2)Oc2ccc(Cl)cc21    SK-OV-3 ovarian    7.47% (active)
 2      CCCc1c(C)nc2scc(-c3ccc(Cl)cc3)n2c1=O    SK-OV-3 ovarian   103% (inactive)
 3  COc1ccc2oc(=O)cc(C(c3ccc[nH]3)c3ccc[nH]3)c2c1    SK-OV-3 ovarian    7.19% (active)
 4                  Cc1ccc(NC(=O)/C=N/O)cc1C    SK-OV-3 ovarian  81.3% (inactive)
 5  CC(Oc1ccc(Cl)cc1)c1ccccc1 (configuration not stated)    SK-OV-3 ovarian   103% (inactive)
 6  Cc1cc(O)c(C2=NN(c3ccc(S(N)(=O)=O)cc3)C(c3ccc(N(C)C)cc3)C2)c(C)c1Cl (configuration not stated)    SK-OV-3 ovarian   106% (inactive)
 7  Cc1ccc(NS(=O)(=O)c2ccccc2)c(NS(=O)(=O)c2ccccc2)c1    SK-OV-3 ovarian   102% (inactive)
 8  COc1ccc(-c2cc(=O)n(-c3nc4ccccc4[nH]3)[nH]2)cc1OC    SK-OV-3 ovarian  87.2% (inactive)
 9  Cc1nc2ccc(-n3c(-c4ccc(Cl)cc4)nc4ccccc4c3=O)cc2n1Cc1ccccc1    SK-OV-3 ovarian  87.3% (inactive)
10          CCOC(=O)c1ccc(NC(=O)Nc2nncs2)cc1    SK-OV-3 ovarian    3.12% (active)
11  COc1cc(NS(C)(=O)=O)ccc1Nc1c2ccc(Cl)cc2nc2c(OC)cccc12    SK-OV-3 ovarian   -5.68% (active)
12  COc1cc(Nc2ccnc(N3CCN(c4ccnc5cc(Cl)ccc45)CC3)n2)cc(OC)c1    SK-OV-3 ovarian     6.6% (active)
13             C/C(=N\NC(=S)N1CCCC1)c1ccccn1    SK-OV-3 ovarian  26.5% (inactive)
14  NC(=O)C12C(=O)NC(=O)C1(C(=O)O)C21CCCC1 (configuration not stated)    SK-OV-3 ovarian   116% (inactive)
15  O=C(Nc1cccc(Cl)c1)OCC(COC(=O)Nc1cccc(Cl)c1)(COC(=O)Nc1cccc(Cl)c1)[N+](=O)[O-]    SK-OV-3 ovarian  64.8% (inactive)
16  COc1ccc(C(=O)c2sc3nc(-c4cccs4)ccc3c2N)cc1OC    SK-OV-3 ovarian  70.9% (inactive)
17              O=C(N/N=C/c1ccccc1O)c1ccccc1    SK-OV-3 ovarian  40.3% (inactive)
18  COc1ccc(S(=O)(=O)Nc2ccc(OCc3nnc(-c4ccc(Cl)cc4)o3)c(F)c2)cc1    SK-OV-3 ovarian  78.8% (inactive)
19       CC(=O)Nc1ccc(Sc2ccc(NC(C)=O)cc2)cc1    SK-OV-3 ovarian    82% (inactive)
20  CC[C@@]1(C(N)=O)CC2C=CC1C2 (some centres not stated)    SK-OV-3 ovarian   103% (inactive)
21  Nc1nc2c(ncn2C2OC3COP(=O)(O)OC4C(COP(=O)(O)OC2C3O)OC(n2cnc3c(N)ncnc32)C4O)c(=O)[nH]1 (configuration not stated)    SK-OV-3 ovarian  87.3% (inactive)
22  Nc1c(CNCc2nnn(Cc3ccccc3)c2N)nnn1Cc1ccccc1    SK-OV-3 ovarian   114% (inactive)
